tested on: 653999-131-R-J2-PDC complex spheroids, growth % test/control; experiment: Anticancer human tumor 653999-131-R-J2-PDC patient-derived lung adenocarcinoma cell line growth inhibition [AhR]; settings: curve of first compound; second compound 0.1 µM
Quick reference: IC50 of the listed items.

compound	IC50
NS(=O)(=O)OCC1CC(n2ccc3c(NC4CCc5ccccc54)ncnc32)CC1O (stereo unspecified) + Cc1ccccc1N=Nc1ccc(NC(=O)c2ccnn2C)c(C)c1	> 10 µM
O=C(c1cc(Cc2n[nH]c(=O)c3ccccc23)ccc1F)N1CCN(C(=O)C2CC2)CC1 + Cc1ccccc1N=Nc1ccc(NC(=O)c2ccnn2C)c(C)c1	> 10 µM
Nc1ncn(C2CC(O)C(CO)S2)c(=O)n1 (stereo unspecified) + CC(CO)NC(=O)c1cc(-c2ccc(Cl)cc2)nn(-c2cnn(C)c2)c1=O	> 0.3 µM
COc1cc(Nc2ncc3c(n2)-c2ccc(Cl)cc2C(c2c(F)cccc2OC)=NC3)ccc1C(=O)O + Cc1cncc(-c2nc(NCCc3c[nH]c4ccccc34)c3ncn(C(C)C)c3n2)c1	> 10 µM
CC1(C)CCC(CN2CCN(c3ccc(C(=O)NS(=O)(=O)c4ccc(NCC5CCOCC5)c([N+](=O)[O-])c4)c(Oc4cnc5[nH]ccc5c4)c3)CC2)=C(c2ccc(Cl)cc2)C1 + Cc1cncc(-c2nc(NCCc3c[nH]c4ccccc34)c3ncn(C(C)C)c3n2)c1	> 10 µM

### Prompt Look at this compound and give its reported IC50. Nc1ncn(C2CC(O)C(CO)S2)c(=O)n1 (stereo unspecified) + Cc1ccccc1N=Nc1ccc(NC(=O)c2ccnn2C)c(C)c1
### Response > 0.3 µM

---

test system: 653999-131-R-J2-PDC complex spheroids, growth % test/control; experiment: Anticancer human tumor 653999-131-R-J2-PDC cell line growth inhibition [AhR]; details: second compound 10 µM; first compound 1 µM; stronger effect = lower value;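 note: spheroids exposed to agents for seven days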;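 for viability, T/C: 100% = DMSO vehicle control viability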
parameter.measured: viability, T/C (%)
Please give a number only; it is taken to be in %.

molecule	viability, T/C / %
CC1COCCN1c1cc(C2(S(C)(=N)=O)CC2)nc(-c2ccnc3[nH]ccc23)n1 (stereo unspecified) + Cc1ccccc1N=Nc1ccc(NC(=O)c2ccnn2C)c(C)c1	71.2
COc1cc(C2c3cc4c(cc3C(OC3OC5COC(C)OC5C(O)C3O)C3COC(=O)C23)OCO4)cc(OC)c1O (stereo unspecified) + CC(CO)NC(=O)c1cc(-c2ccc(Cl)cc2)nn(-c2cnn(C)c2)c1=O	49.4
O=C(C=Cc1cccc(S(=O)(=O)Nc2ccccc2)c1)NO + Cc1ccccc1N=Nc1ccc(NC(=O)c2ccnn2C)c(C)c1	71.8

### Prompt Look at this molecule and give its reported viability, T/C. COc1cc(C2c3cc4c(cc3C(OC3OC5COC(C)OC5C(O)C3O)C3COC(=O)C23)OCO4)cc(OC)c1O (stereo unspecified) + Cc1ccccc1N=Nc1ccc(NC(=O)c2ccnn2C)c(C)c1
### Response 49

### Prompt Next record, please: Nc1ccn(C2OC(CO)C(O)C2(F)F)c(=O)n1 (stereo unspecified) + Cc1ccccc1N=Nc1ccc(NC(=O)c2ccnn2C)c(C)c1
### Response 50.3

### Prompt Next record, please: Nc1ncn(C2CC(O)C(CO)O2)c(=O)n1 (stereo unspecified) + Cc1ccccc1N=Nc1ccc(NC(=O)c2ccnn2C)c(C)c1
### Response 70.8
